- Test system: Mycobacterium tuberculosis
- test summary: AntiMycobacterium tuberculosis activity 2-week Alamar Blue 7H9/cholesterol/BSA/Tx MIC (uM)
- Assay type: functional
- measurement parameters: 336 h
Each record here notes measured MIC.
Respond with the figure and its unit, in that order.

- chem smiles: "O=C(Nc1cccnc1)c1c(O)c2cccc3c2n(c1=O)CC3"
  MIC: "12.5 µM"
- chem smiles: "O=C(Nc1nnc(-c2ccc(Cl)s2)o1)c1ccc(Cl)s1"
  MIC: "6.25 µM"
- chem smiles: "Brc1c(-c2ccc3c(c2)OCO3)nc2ncccn12"
  MIC: "2.3 µM"
- chem smiles: "CCOC(=O)c1c(NC(=O)c2c(F)c(F)c(F)c(F)c2F)sc(C(N)=O)c1C"
  MIC: "0.39 µM"
- chem smiles: "CN1CCN(c2cc(-c3ccc(F)cc3)nc(-c3ccncc3)n2)CC1"
  MIC: "6.25 µM"
- chem smiles: "Cn1ccnc1CNCCS(=O)(=O)c1cccc(Nc2ccc(-c3cccc(F)c3)cn2)c1"
  MIC: "37 µM"
- chem smiles: "CCCn1c(CNc2ccccc2O)nc2ccccc21"
  MIC: "6.25 µM"

# evaluate next
*Q* Given O=C(c1ccco1)N(CCCn1ccnc1)c1nc2c(Cl)cccc2s1 , state its recorded MIC.
*A* 12.5 µM

---

Each record here notes measured MIC.
- System: Mycobacterium tuberculosis
- test summary: AntiMycobacterium tuberculosis activity 1-week GAST/Fe MIC (uM)
- Type: functional
- measurement parameters: 168 h
Numeric answer only, unit µM assumed.

*Q* Given CN1CCN(c2cc(-c3ccc(F)cc3)nc(-c3ccncc3)n2)CC1 , state its recorded MIC.
*A* 19

*Q* Given CC(C)(C)c1cnc(NC(=O)c2ccccc2O)s1 , state its recorded MIC.
*A* 19

*Q* Given COc1ccc(-c2cc(NC(=O)c3ccc(F)cc3Cl)ccc2OC)cc1 , state its recorded MIC.
*A* 3.13

*Q* Given O=C(C1CCN(c2cc(-n3cccc3)ncn2)CC1)N1CCc2ccccc2C1 , state its recorded MIC.
*A* 0.39

*Q* Given FC(F)(F)c1nnc2ccc(Cl)nn12 , state its recorded MIC.
*A* 0.6

---

- Test system: Plasmodium falciparum
- test summary: Antimalarial activity: Asexual Blood Stage Plasmodium falciparum Dd2 IC50 (uM)
- Type: functional, organism-based
metric name: IC50 (nM)
Numeric answer only, unit nM assumed.

- molecule: "CS(=O)(=O)c1cccc(-c2cnc3[nH]cc(-c4ccc(CCC(=O)O)cc4)c3c2)c1"
  tested target: "Plasmodium falciparum"
  unit of measure: "nM"
  IC50: 680
- molecule: "Clc1cccc(C(c2ccc(CN3CCNCC3)cc2)n2ccnc2)c1 (stereo unspecified)"
  tested target: "Plasmodium falciparum"
  unit of measure: "nM"
  IC50: 1530
- molecule: "Nc1nccc2ccc(-c3ccc4nccn4c3)cc12"
  tested target: "Plasmodium falciparum"
  unit of measure: "nM"
  IC50: 260

*Q* Given COc1ccc(C2CC(c3cccs3)=NN2C(=O)c2ccco2)cc1OC (stereo unspecified) , state its recorded IC50.
*A* 980

*Q* Given c1ccc2c(c1)CN(CC1CC1)CC1(CCN(Cc3c[nH]c4cnccc34)CC1)O2 , state its recorded IC50.
*A* 1600

*Q* Given O=C(Nc1ccccc1)c1ccc(-c2cc3ccncc3cc2OC2CCNCC2)s1 , state its recorded IC50.
*A* 1240

---

- test summary: HL60 CC50 (uM) Cytotoxicity
- Assay type: functional
- measurement parameters: HL-60
metric name: CC50

Observe how each entry below is paired with its result.
- molecule: "CC(C)(C)n1nc(Cc2cccc3ccccc23)c2c(N)ncnc21"
  CC50: "24.1 µM"
- molecule: "O=C(c1ccc(F)cc1)N(CCNc1ccccc1)c1ccccc1"
  CC50: "> 50 µM"
- molecule: "CS(=O)(=O)N1CCC(CCn2nc(Cc3cccc4ccccc34)c3c(N)ncnc32)CC1"
  CC50: "> 50 µM"
- molecule: "OCc1ccc(-c2cncc(Nc3cccc(Cl)c3)c2)cc1"
  CC50: "> 25 µM"

*Q* Given CCCNC(=O)N1CCC2(CC1)CC(=O)c1cc(C)ccc1O2 , state its recorded CC50.
*A* > 50 µM

*Q* Given O=C(NCCc1ccccc1)c1cc(-c2cccnc2)cnc1NCC1CC1 , state its recorded CC50.
*A* > 12.5 µM

*Q* Given CCN(CC)CCCN1CCN(C(=O)c2cccc(-c3noc(C(F)(F)F)n3)c2)CC1 , state its recorded CC50.
*A* > 50 µM

*Q* Given Cc1cc2nc(NC(=O)C(C)(C)C)nc(Cl)c2n1Cc1ccc(Cl)cc1 , state its recorded CC50.
*A* > 25 µM
